Items are presented alongside their recorded Ki.
Target: LHRH receptors (Rattus norvegicus)
Construct: Pituitary membranes containing LHRH receptors are prepared in batches from quick-frozen rat pituitaries; tissue Hilltop Labs; host or cells: rat pituitary membranes
Sequence (P30969 whole entry): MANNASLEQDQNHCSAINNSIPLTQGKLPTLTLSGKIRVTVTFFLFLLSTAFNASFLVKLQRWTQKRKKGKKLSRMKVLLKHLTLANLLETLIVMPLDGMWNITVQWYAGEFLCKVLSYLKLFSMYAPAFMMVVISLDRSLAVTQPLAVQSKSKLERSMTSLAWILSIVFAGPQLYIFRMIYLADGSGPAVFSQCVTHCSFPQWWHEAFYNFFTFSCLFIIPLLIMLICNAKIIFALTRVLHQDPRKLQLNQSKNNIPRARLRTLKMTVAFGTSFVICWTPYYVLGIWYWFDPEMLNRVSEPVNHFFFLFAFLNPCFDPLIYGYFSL
Assay: Receptor Binding (radioligand receptor binding assay)
Conditions: table 4; rat pituitary membranes, radioligand 50 pM, 2 hours at 4° C.; read-out: Receptor Binding pkI (converted)
Square brackets hold non-standard residues; d marks the D form. Peptide text beside a SMILES is read from it. * marks the point of attachment. Propanoyl(3-(4-F-phenyl)) = O=C(CCc1ccc(F)cc1)*; Trp(5-F) = N[C@@H](Cc1c[nH]c2ccc(F)cc12)C(=O)O; dTrp(5-F) = N[C@H](Cc1c[nH]c2ccc(F)cc12)C(=O)O; d1Nal = N[C@H](Cc1cccc2ccccc12)C(=O)O; Lys(iPr) = CC(C)NCCCC[C@H](N)C(=O)O; NMeY = CN[C@@H](Cc1ccc(O)cc1)C(=O)O; dBta = N[C@H](Cc1csc2ccccc12)C(=O)O; Pyrazinecarbonyl = O=C(c1cnccn1)*; d3Pal = N[C@H](Cc1cccnc1)C(=O)O; Nicotinoyl = O=C(c1cccnc1)*; Bn = c1ccc(C*)cc1
State the answer as a number, implicitly in nM.

// solved cases for Ki follow
COMPOUND	Ki, nM
CC(C)C[C@H](NC(=O)[C@@H](CCCCNC(=O)c1cccnc1)NC(=O)[C@H](Cc1ccccc1)NC(=O)[C@H](CO)NC(=O)[C@@H](Cc1cccc2ccccc12)NC(=O)CCc1ccc(F)cc1)C(=O)N[C@@H](CCCCNC(C)C)C(=O)N1CCC[C@H]1C(=O)N[C@H](C)C(N)=O [Compound 252] ({Propanoyl(3-(4-F-phenyl))}-[d1Nal]SF[dK](Nicotinoyl)L[Lys(iPr)]P[dA]-NH2)	0.0132
CCNC(=O)[C@@H]1CCCN1C(=O)[C@H](CCCNC(=N)N)NC(=O)[C@H](CC(C)C)NC(=O)[C@@H](Cc1c[nH]c2ccccc12)NC(=O)[C@H](Cc1ccc(O)cc1)NC(=O)[C@H](CO)NC(=O)[C@H](Cc1c[nH]c2ccc(F)cc12)NC(=O)CCc1ccc(F)cc1 [Compound 142] ({Propanoyl(3-(4-F-phenyl))}-[Trp(5-F)]SY[dW]LRP-NHEt)	0.0724
COc1ccc(C[C@H](NC(=O)[C@H](CO)NC(=O)[C@@H](Cc2cccc3ccccc23)NC(=O)CCc2ccc(F)cc2)C(=O)N[C@H](CCCCNC(=O)c2cccnc2)C(=O)N[C@@H](CC(C)C)C(=O)N[C@@H](CCCCNC(C)C)C(=O)N2CCC[C@H]2C(=O)N[C@H](C)C(N)=O)cc1 [Compound 200] ({Propanoyl(3-(4-F-phenyl))}-[d1Nal]SY(Me)[dK](Nicotinoyl)L[Lys(iPr)]P[dA]-NH2)	0.00437
COc1ccc(C[C@H](NC(=O)[C@H](CO)NC(=O)[C@@H](Cc2cccc3ccccc23)NC(=O)CCc2ccc(F)cc2)C(=O)N[C@H](CCCCNC(=O)c2cnccn2)C(=O)N[C@@H](CC(C)C)C(=O)N[C@@H](CCCCNC(C)C)C(=O)N2CCC[C@H]2C(=O)N[C@H](C)C(N)=O)cc1 [Compound 203] ({Propanoyl(3-(4-F-phenyl))}-[d1Nal]SY(Me)[dK](Pyrazinecarbonyl)L[Lys(iPr)]P[dA]-NH2)	0.0209
CC(C)C[C@H](NC(=O)[C@@H](CCCCNC(=O)c1cccnc1)NC(=O)[C@H](Cc1ccc(O)cc1)N(C)C(=O)[C@H](CO)NC(=O)[C@@H](Cc1csc2ccccc12)NC(=O)CCc1ccc(F)cc1)C(=O)N[C@@H](CCCCNC(C)C)C(=O)N1CCC[C@H]1C(=O)N[C@H](C)C(N)=O [Compound 253] ({Propanoyl(3-(4-F-phenyl))}-[dBta]S[NMeY][dK](Nicotinoyl)L[Lys(iPr)]P[dA]-NH2)	0.00933

Problem: Need Ki of CC(C)C[C@H](NC(=O)[C@@H](Cc1cccnc1)NC(=O)[C@H](Cc1ccc(O)cc1)NC(=O)[C@H](COCc1ccccc1)NC(=O)[C@@H](Cc1cccc2ccccc12)NC(=O)CCc1ccc(F)cc1)C(=O)N[C@@H](CCCCNC(C)C)C(=O)N1CCC[C@H]1C(=O)N[C@H](C)C(N)=O [Compound 202] ({Propanoyl(3-(4-F-phenyl))}-[d1Nal]S(Bn)Y[d3Pal]L[Lys(iPr)]P[dA]-NH2) , thanks.
Result: 0.138

Problem: # iterate: CCNC(=O)[C@@H]1CCCN1C(=O)[C@H](CCCNC(=N)N)NC(=O)[C@H](CC(C)C)NC(=O)[C@@H](Cc1c[nH]c2ccccc12)NC(=O)[C@H](Cc1ccc(O)cc1)NC(=O)[C@H](CO)NC(=O)[C@@H](Cc1c[nH]c2ccc(F)cc12)NC(=O)CCc1ccc(F)cc1 [Compound 143] ({Propanoyl(3-(4-F-phenyl))}-[dTrp(5-F)]SY[dW]LRP-NHEt)
Result: 0.049
